System: Plasmodium falciparum
ASSAY_PROCEDURE: Screen against P. falciparum Asexual Blood Stage (ABS), at 5uM
Assay type: functional, Dd2
RECORDED_CONDITIONS: tested at 5 uM
Screen size: about 65,000 compounds; about 2,100 (3.2%) showed an effect of 50% or more. The median lay at about -52%. This excerpt belongs to a sample that is enriched for strong results.
READOUT: INHIBITION (%)

> print(dat)
                                    compound    experimental.system  assay.value
 1  COc1ccccc1N1CCC(CNCc2c(C)nn(C)c2OC)C1 (configuration not stated)  Plasmodium falciparum         53.5
 2  COc1ccccc1N1CCC(CNCc2cccc(O)c2)C1 (configuration not stated)  Plasmodium falciparum         56.8
 3  Cc1cc(C)c(CNC(=O)NCC2CCCO2)c(=O)[nH]1 (configuration not stated)  Plasmodium falciparum        -64.8
 4  C[C@@H](CO)NC(=O)c1ccc2nc(NS(C)(=O)=O)sc2c1  Plasmodium falciparum         -104
 5  COc1cccc(CNCC2CCN(CC(C)O)CC2)c1OC (configuration not stated)  Plasmodium falciparum        -2.28
 6  Cc1cc(C)c(CNC(=O)CCC2CCCO2)c(=O)[nH]1 (configuration not stated)  Plasmodium falciparum         53.2
 7  COc1ccccc1N1CCC(CNCc2cccc(C#N)c2)C1 (configuration not stated)  Plasmodium falciparum          3.2
 8  COc1ccc(CNCC2CCN(c3ccccc3OC)C2)cc1O (configuration not stated)  Plasmodium falciparum         24.5
 9  COc1ccccc1N1CCC(CNS(=O)(=O)c2cccs2)C1 (configuration not stated)  Plasmodium falciparum         7.44
10  Cc1cc(C)c(CNC(=O)NCCC2CCCO2)c(=O)[nH]1 (configuration not stated)  Plasmodium falciparum         20.5
11  COc1ccccc1N1CCC(CNS(=O)(=O)c2c(C)nn(C)c2C)C1 (configuration not stated)  Plasmodium falciparum        -22.2
12              COc1c(CNCc2ccccc2CO)c(C)nn1C  Plasmodium falciparum        -2.62

###

System: Plasmodium falciparum
ASSAY_PROCEDURE: Screen against P. falciparum Asexual Blood Stage (ABS), at 5uM
Format: functional, Dd2
RECORDED_CONDITIONS: tested at 5 uM
About 2,100 (3.2%) of roughly 65,000 compounds showed an effect of 50% or more. The median lay at about -52%. The sample holds strong results, similar compounds and a random draw of the others, so the mix is not that of the screen.
The reader will find reported INHIBITION values listed item by item below.
READOUT: INHIBITION (%)

> print(dat)
                                    compound  display.unit  assay.value
 1   CCc1ncc2c(n1)CN(CC(=O)Nc1ccc(Cl)cn1)CC2             %         59.4
 2  Cc1ccc(CN2Cc3ccccc3OC3(CCC(CO)CC3)C2)s1 (stereo not drawn)             %         -106
 3               CCOc1ccc(CNCCCn2ccnc2)cc1OC             %        -13.1
 4  COC(=O)c1sc2cccc(F)c2c1CNC(=O)C1CCOC1 (stereo not drawn)             %        -5.44
 5  CC(C)(C)n1nc(C2CC2)cc1C(=O)NC1CCN(CC(N)=O)CC1             %        -56.9
 6           COCCCn1ccc(NC(=O)NCCCn2ccnc2)n1             %        -58.9
 7          Cc1nc(NCc2ccccn2)c2c(n1)c(C)nn2C             %        -26.7
 8  Cn1cc(N2CCC3(CCCN(Cc4ccc(F)cc4)C3)C2=O)cn1 (stereo not drawn)             %        -69.1
 9      Cc1ccccc1OCn1ccc(C(=O)NCCN2CCOCC2)n1             %        -44.8
10  c1coc(-c2nnc(CN3CCCC(CN4CCCCCC4)C3)o2)c1 (stereo not drawn)             %        -67.1
11   Cc1ccc(CN2CCCC3(CCN(Cc4ccoc4)CC3)C2)cc1             %         79.8
12  CCOC1COC2(CCN(C(=O)c3cccc(C)n3)CC2)C1 (stereo not drawn)             %          -46
13  c1ccc(OCC2CC2)c(CNC2CCc3ncnn3C2)c1 (stereo not drawn)             %         51.2
14            COCC1(Nc2nc(C)nc3c2cnn3C)CCCC1             %         -142
15  CNC(=O)CN1CCOCC2(CCCN(Cc3ccoc3)C2)C1 (stereo not drawn)             %         33.7
16  CNC(=O)COc1ccccc1CNC1CCc2ncnn2C1 (stereo not drawn)             %        -40.5
17   NS(=O)(=O)c1ccc(NCc2ccccc2F)cc1C(F)(F)F             %        -6.73
18  CN(C)C(=O)C1CN(Cc2ccsc2)Cc2ccnn2C1 (stereo not drawn)             %        -99.4
19  CC(=O)c1cc(CN2C[C@@H]3CC[C@H]2CN(S(=O)(=O)N(C)C)C3)cs1             %        -60.2
20      Cn1cc(Cl)cc1C(=O)N1CCCN(Cc2cccs2)CC1             %        -60.9
21        Cn1cnc2c1CCN(Cc1csc(-c3ccco3)n1)C2             %         51.3
22   Cn1cc(CN2CCCN(C(=O)c3cc(Cl)cn3C)CC2)cn1             %        -7.21
23  CN(C(=O)COc1ccc(F)cc1)[C@@H]1CC[C@@H](n2ccnc2)[C@@H]1O             %        -72.8
24    Cc1ncc2c(n1)CN(CC(=O)Nc1ccc(Cl)cn1)CC2             %         6.47
25  O=C(NC1CCC1)C1=NOC2(CCN(Cc3ccco3)C2)C1 (stereo not drawn)             %        -31.3
26  Cc1cccc(OCC(O)CN2CCN(c3nccs3)CC2)c1 (stereo not drawn)             %        -7.68
27  Cc1cc(N2CCC3(CCCN(CCO)C3=O)C2)nc2ccccc12 (stereo not drawn)             %         19.1
28  Cc1nc(CN2CCCC23CCN(c2nc4ccccc4s2)CC3)co1             %         9.68
29     Cc1ccc(-c2nc(CN3CCc4c(ncn4C)C3)cs2)o1             %         -159
30           O=C(NC1CCCC1)c1ccnc(C2CCNCC2)c1             %         -131
31  N[C@H]1CN(C(=O)c2ccc(Cl)cc2O)C[C@@H]1C1CC1             %           33
32  Cn1cc(CN2CCCC23CCN(c2nc4ccccc4s2)CC3)cn1             %         51.7
33       Cc1ccc(C(=O)N2CCCN(Cc3cccs3)CC2)n1C             %         55.6
34             Fc1ccccc1CNc1ccnc(C2CCNCC2)c1             %         66.5
35       O=C(CN1CCOc2ccc(Cl)cc21)NCCCn1ccnc1             %        -30.7
36  Cc1nc(CN2CC[C@@H]3[C@@H](CCC(=O)N3CCc3c[nH]cn3)C2)co1             %        -58.8
37  CNC(=O)C1CCC2(CCN(c3nncs3)CC2)CO1 (stereo not drawn)             %        -79.1
38  c1ccc(OC2CCCC2)c(CNC2CCc3ncnn3C2)c1 (stereo not drawn)             %         20.5
39       Cn1cc(Cl)cc1C(=O)N1CCN(Cc2cccs2)CC1             %         7.04
40  CN(CCc1ncnn1C1Cc2ccccc2C1)C1CCS(=O)(=O)C1 (stereo not drawn)             %        -63.2
41         COCCn1cnc2ccc(NC(=O)C3CC3)cc2c1=O             %          -76
42  Cn1cccc1C(=O)N1CCO[C@H]2[C@H](OCc3cccnc3)CC[C@@H]21             %        -57.2
43           CCOc1c(CNCCCn2ccnc2)cc(Cl)cc1OC             %         66.5
44  O=C(NC1CCC1)C1=NOC2(CCN(Cc3ccc(F)cc3)C2)C1 (stereo not drawn)             %        -11.6
45  Cc1ccc(CN2CCC3(CCCN(C(=O)N(C)C)C3)C2)cc1 (stereo not drawn)             %        -59.2
46   Cc1nc(NC2(CN3CCCCC3)CCCCC2)c2cnn(C)c2n1             %           56
47  O=C1CC[C@H]2CN(Cc3ccc(Cl)s3)CC[C@H]2N1CCc1c[nH]cn1             %         66.6
48       CC(C)(CNC(=O)CCCOc1cccc(F)c1)C(N)=O             %         44.9
